- Tested on: Yap1 mRNA
- experimental-details: Antisense inhibition of human Yap1 in A-431 cells by cEt gapmers, single dose (Example 2, RTS4814)
- Type: cell-based
- test-conditions: Table 21; Yap1 mRNA, percent of untreated control; 3-10-3 cEt gapmers targeting SEQ ID NO.: 1 and 2
Strand notation (5' to 3'): a small letter for the sugar, then the base; units joined by * are phosphorothioate-linked, units joined directly phosphodiester-linked; [ ] holds rarer units or linkages, { } end groups; capitals alone tell only the bases. k = constrained ethyl (cEt); [5mC] = 5-methylcytosine; d = 2'-deoxy (DNA)
Recorded YAP1 (% UTC) by entry
observable: YAP1 (% UTC)

• 1074727 (antisense kG*kA*kG*dG*dT*dA*dT*dA*dA*d[5mC]*dT*dG*dG*kG*k[5mC]*kA) [Compound 1074727] = 9
• 1074887 (antisense kT*kA*kG*d[5mC]*d[5mC]*dT*dG*dA*dA*dG*d[5mC]*dA*dA*kG*kT*kT) [Compound 1074887] = 57
• 1076295 (kG*kT*kA*dT*dA*dT*dT*dA*dG*dT*dG*d[5mC]*d[5mC]*k[5mC]*k[5mC]*k[5mC]; antisense) [Compound 1076295] = 2
• 1075207 (antisense k[5mC]*kT*kA*dT*dT*dA*dA*dA*dT*dG*dA*dG*d[5mC]*kA*k[5mC]*k[5mC]) [Compound 1075207] = 4
• 1074695 (antisense k[5mC]*k[5mC]*k[5mC]*d[5mC]*d[5mC]*dT*dA*dA*dA*dT*d[5mC]*dT*dT*k[5mC]*kA*k[5mC]) [Compound 1074695] = 49
• 1074215 (antisense kG*k[5mC]*kT*d[5mC]*d[5mC]*dG*dG*d[5mC]*dG*dG*d[5mC]*dT*dT*kG*kA*kA) [Compound 1074215] = 77
